These data points were gathered from patent US20230000876A1.

# Assay Protocol: Pharmacokinetics and brain distribution after single oral dose, rats
# Assay type: in vivo, male Sprague-Dawley rats
# Measurement Parameters: male, Sprague-Dawley, rat, plasma, single PO 1 mg/kg (HCl salt, as free base), 6 h, read-out: Mean Plasma Concentration
Readout Name: concentration at 6 h (ng/mL)
Express the result in ng/mL but write the number alone.

Which measured concentration at 6 h value corresponds to "CC(C)N1CCOc2c(F)cc(-c3nc(Nc4ccc(C5CCN(C)CC5)cn4)ncc3F)cc21" ? 9.37

* * *

# Assay Protocol: Pharmacokinetics and brain distribution after single oral dose, rats
# Format: in vivo, male Sprague-Dawley rats
# Measurement Parameters: male, Sprague-Dawley, rat, plasma, single PO 10 mg/kg
Readout Name: Cmax (ng/mL)
Express the result in ng/mL but write the number alone.

Which measured Cmax value corresponds to CC(C)N1CCOc2c(F)cc(-c3nc(Nc4ccc(C5CCN(C)CC5)cn4)ncc3F)cc21 [Compound (I)] ? 90.4

* * *

# Assay Protocol: Pharmacokinetics and brain distribution after single oral dose, rats
# Type: in vivo, male Sprague-Dawley rats
# Measurement Parameters: male, Sprague-Dawley, rat, plasma, single PO 100 mg/kg (HCl salt, as free base), 2 h
Readout Name: concentration at 2 h (ng/mL)
Express the result in ng/mL but write the number alone.

Which measured concentration at 2 h value corresponds to "CC(C)N1CCOc2c(F)cc(-c3nc(Nc4ccc(C5CCN(C)CC5)cn4)ncc3F)cc21" ? 142

* * *

# Assay Protocol: Pharmacokinetics and brain distribution after single oral dose, rats
# Assay type: in vivo, male Sprague-Dawley rats
# Measurement Parameters: male, Sprague-Dawley, rat, plasma, single PO 10 mg/kg (HCl salt, as free base), 12 h
Readout Name: concentration at 12 h (ng/mL)
Express the result in ng/mL but write the number alone.

Which measured concentration at 12 h value corresponds to CC(C)N1CCOc2c(F)cc(-c3nc(Nc4ccc(C5CCN(C)CC5)cn4)ncc3F)cc21 [Compound (I)] ? 46.3

* * *

# Assay Protocol: Pharmacokinetics and brain distribution after single oral dose, rats
# Assay type: in vivo, male Sprague-Dawley rats
# Measurement Parameters: male, Sprague-Dawley, rat, plasma, single PO 30 mg/kg (HCl salt, as free base), 2 h
Readout Name: concentration at 2 h (ng/mL)
Express the result in ng/mL but write the number alone.

Which measured concentration at 2 h value corresponds to "CC(C)N1CCOc2c(F)cc(-c3nc(Nc4ccc(C5CCN(C)CC5)cn4)ncc3F)cc21" ? 73.1

* * *

# Assay Protocol: Pharmacokinetics and brain distribution after single oral dose, rats
# Assay type: in vivo, male Sprague-Dawley rats
# Measurement Parameters: male, Sprague-Dawley, rat, plasma, single PO 30 mg/kg (HCl salt, as free base), 8 h
Readout Name: concentration at 8 h (ng/mL)
Express the result in ng/mL but write the number alone.

Which measured concentration at 8 h value corresponds to "CC(C)N1CCOc2c(F)cc(-c3nc(Nc4ccc(C5CCN(C)CC5)cn4)ncc3F)cc21" ? 155
